The values you see were collected from ChEMBL document CHEMBL1130186.

- tgt: Integrin alpha-4/beta-1 (Homo sapiens, UniProt P05556+P13612)
- Sequence (P05556 whole entry): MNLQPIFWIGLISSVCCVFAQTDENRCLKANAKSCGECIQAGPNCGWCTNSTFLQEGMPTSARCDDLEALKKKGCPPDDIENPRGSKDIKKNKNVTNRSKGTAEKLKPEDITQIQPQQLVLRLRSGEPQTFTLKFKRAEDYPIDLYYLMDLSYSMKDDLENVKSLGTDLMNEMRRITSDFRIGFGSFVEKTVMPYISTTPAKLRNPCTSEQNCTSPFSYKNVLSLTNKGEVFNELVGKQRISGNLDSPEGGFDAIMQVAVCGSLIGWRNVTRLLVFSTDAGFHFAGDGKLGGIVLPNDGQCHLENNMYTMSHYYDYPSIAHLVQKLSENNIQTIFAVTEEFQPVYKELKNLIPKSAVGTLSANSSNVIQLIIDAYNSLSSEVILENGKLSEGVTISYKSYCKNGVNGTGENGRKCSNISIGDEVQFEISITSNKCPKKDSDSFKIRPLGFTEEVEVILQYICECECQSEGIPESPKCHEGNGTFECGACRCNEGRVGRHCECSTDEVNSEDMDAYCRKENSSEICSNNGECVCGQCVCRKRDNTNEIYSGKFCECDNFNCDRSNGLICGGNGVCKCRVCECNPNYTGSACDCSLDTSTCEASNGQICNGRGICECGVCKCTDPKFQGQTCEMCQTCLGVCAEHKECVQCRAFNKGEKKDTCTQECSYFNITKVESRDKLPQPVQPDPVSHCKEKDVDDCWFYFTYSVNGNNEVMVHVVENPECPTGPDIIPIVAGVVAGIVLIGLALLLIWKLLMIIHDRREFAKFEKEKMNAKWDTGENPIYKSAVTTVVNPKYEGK
- Sequence (P13612 whole entry): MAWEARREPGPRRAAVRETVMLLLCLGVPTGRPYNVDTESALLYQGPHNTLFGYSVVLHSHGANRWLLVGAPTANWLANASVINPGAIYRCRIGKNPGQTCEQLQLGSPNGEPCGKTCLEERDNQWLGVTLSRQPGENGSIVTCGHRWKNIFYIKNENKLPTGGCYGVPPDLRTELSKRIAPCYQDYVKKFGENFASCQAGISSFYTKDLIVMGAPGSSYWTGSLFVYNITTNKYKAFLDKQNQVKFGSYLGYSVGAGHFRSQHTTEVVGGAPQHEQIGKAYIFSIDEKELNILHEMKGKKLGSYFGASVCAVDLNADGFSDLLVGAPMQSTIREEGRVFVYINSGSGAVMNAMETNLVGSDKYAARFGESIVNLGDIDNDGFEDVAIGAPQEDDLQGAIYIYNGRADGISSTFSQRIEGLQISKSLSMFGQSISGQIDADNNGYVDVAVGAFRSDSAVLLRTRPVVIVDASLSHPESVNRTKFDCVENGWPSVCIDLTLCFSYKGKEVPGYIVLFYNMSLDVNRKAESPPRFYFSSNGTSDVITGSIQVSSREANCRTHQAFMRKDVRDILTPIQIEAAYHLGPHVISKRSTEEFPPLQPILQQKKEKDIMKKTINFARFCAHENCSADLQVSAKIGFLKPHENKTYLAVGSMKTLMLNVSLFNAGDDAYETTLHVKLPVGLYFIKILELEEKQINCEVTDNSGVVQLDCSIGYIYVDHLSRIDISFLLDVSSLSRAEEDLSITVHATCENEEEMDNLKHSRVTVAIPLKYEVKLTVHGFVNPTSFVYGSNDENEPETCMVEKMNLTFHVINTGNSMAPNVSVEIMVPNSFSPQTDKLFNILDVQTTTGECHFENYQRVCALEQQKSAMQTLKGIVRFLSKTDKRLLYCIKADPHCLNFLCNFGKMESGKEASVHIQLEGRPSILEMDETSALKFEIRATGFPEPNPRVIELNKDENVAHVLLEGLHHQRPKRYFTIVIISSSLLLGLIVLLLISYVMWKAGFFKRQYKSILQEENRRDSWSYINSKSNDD
- protocolDescription: Inhibition of fluorescently labeled alpha4-beta1 positive Ramos cells binding to immobilized VCAM-1.
- Type: cell-based
*1 amine or outer side, *2 acyl side, *3 side chain or, on linkers, in order; H or OH if unused. Where a SMILES comes first, the peptide text is derived from it. Bridges are numbered along the chain shown (N, C = ends). [ ]: non-standard residue; d: D form. The star is where a group is joined. X5 = O=C([C@H](Cc1c(F)c(F)c(O)c(F)c1F)N[*:1])[*:2]; X1 = O=C(C(Cc1ccc(O)cc1)c1ccccc1)*; mTyr = N[C@@H](Cc1cccc(O)c1)C(=O)O; X4 = O=C(c1ccc(-c2ccc(O)cc2)cc1)*; X2 = O=C(c1cccc2cc(O)ccc12)*; Inp = O=C(O)C1CCNCC1; GABA = NCCCC(=O)O
experimentalReadout: pIC50
Give bare numbers, as −log10 of the molar value.

// known answers, use as guide
molecule="N[C@@H](Cc1ccc(O)cc1)C(=O)N[C@H]1CSSC[C@@H](C(=O)O)NC(=O)CCCNC1=O (H-YC[GABA]C-OH; disulfide 2-4)" experimentalreadout=pIC50 recordedvalue=6.00
molecule="N[C@@H](Cc1cccc(O)c1)C(=O)N[C@H]1CSSC[C@@H](C(=O)O)NC(=O)[C@@H]2CCCN2C(=O)[C@H](CO)NC1=O (H-[mTyr]CSPC-OH; disulfide 2-5)" experimentalreadout=pIC50 recordedvalue=4.60
molecule="O=C(N[C@H]1CSSC[C@@H](C(=O)O)NC(=O)[C@@H]2CCCN2C(=O)[C@H](CO)NC1=O)C(Cc1ccc(O)cc1)c1ccccc1 (some centres undefined) (X1-CSPC-OH; disulfide 1-4)" experimentalreadout=pIC50 recordedvalue=5.70
molecule="NC(N)=NCCC[C@H](NC(=O)[C@@H](N)Cc1ccc(O)cc1)C(=O)N[C@H]1CSSC[C@@H](C(=O)O)NC(=O)[C@@H]2CCCN2C(=O)[C@H](CC(=O)O)NC1=O (H-YRCDPC-OH; disulfide 3-6)" experimentalreadout=pIC50 recordedvalue=5.22
molecule="CC(=O)N[C@@H](Cc1ccc(O)cc1)C(=O)N[C@H]1CSSC[C@@H](C(=O)O)NC(=O)[C@@H]2CCCN2C(=O)[C@H](C)NC1=O (Ac-YCAPC-OH; disulfide 2-5)" experimentalreadout=pIC50 recordedvalue=6.51

For each of the molecules below, note its pIC50.
1. N[C@@H](Cc1ccc(O)cc1)C(=O)N[C@H]1CSSC[C@@H](C(=O)O)NC(=O)C2CCN(CC2)C1=O (H-YC[Inp]C-OH; disulfide 2-4)
2. O=C(N[C@H]1CSSC[C@@H](C(=O)O)NC(=O)[C@@H]2CCCN2C(=O)[C@H](CO)NC1=O)c1cccc2cc(O)ccc12 (X2-CSPC-OH; disulfide 1-4)
3. O=C(N[C@H]1CSSC[C@@H](C(=O)O)NC(=O)[C@@H]2CCCN2C(=O)[C@H](CO)NC1=O)c1ccc(-c2ccc(O)cc2)cc1 (X4-CSPC-OH; disulfide 1-4)

Reply:
5.82
4.40
3.92

For each of the molecules below, note its pIC50.
1. N[C@@H](Cc1c(F)c(F)c(O)c(F)c1F)C(=O)N[C@H]1CSSC[C@@H](C(=O)O)NC(=O)[C@@H]2CCCN2C(=O)[C@H](CO)NC1=O (H-[X5]CSPC-OH; disulfide 2-5)
2. CC(=O)N[C@@H](Cc1ccc(O)cc1)C(=O)N[C@H]1CSSC[C@@H](C(=O)O)NC(=O)[C@@H]2CCCN2C(=O)[C@H](Cc2ccc(O)cc2)NC1=O (Ac-YCYPC-OH; disulfide 2-5)
3. O=C(N[C@H]1CSSC[C@@H](C(=O)O)NC(=O)[C@@H]2CCCN2C(=O)[C@H](CO)NC1=O)C1CCNCC1 (H-[Inp]CSPC-OH; disulfide 2-5)
4. N=C(N)NCCC[C@H](NC(=O)[C@@H](N)Cc1c[nH]c2ccccc12)C(=O)N[C@H]1CSSC[C@@H](C(=O)O)NC(=O)[C@@H]2CCCN2C(=O)[C@H](CC(=O)O)NC1=O (H-WRCDPC-OH; disulfide 3-6)
5. N=C(N)NCCC[C@H](NC(=O)[C@@H](N)Cc1ccc(O)cc1)C(=O)N[C@H]1CSSC[C@@H](C(=O)O)NC(=O)[C@@H]2CCCN2C(=O)[C@H](CCC(=O)O)NC1=O (H-YRCEPC-OH; disulfide 3-6)
6. N[C@H](Cc1ccc(O)cc1)C(=O)N[C@H]1CSSC[C@@H](C(=O)O)NC(=O)[C@@H]2CCCN2C(=O)[C@H](CO)NC1=O

Reply:
4.22
6.64
4.30
4.00
4.52
3.90
